// values below are reported pIC50
# tested system: BRG-1 (Homo sapiens, UniProt P51532)
# Construct: made in house; host or cells: High Five insect cells
# Sequence (P51532 whole entry): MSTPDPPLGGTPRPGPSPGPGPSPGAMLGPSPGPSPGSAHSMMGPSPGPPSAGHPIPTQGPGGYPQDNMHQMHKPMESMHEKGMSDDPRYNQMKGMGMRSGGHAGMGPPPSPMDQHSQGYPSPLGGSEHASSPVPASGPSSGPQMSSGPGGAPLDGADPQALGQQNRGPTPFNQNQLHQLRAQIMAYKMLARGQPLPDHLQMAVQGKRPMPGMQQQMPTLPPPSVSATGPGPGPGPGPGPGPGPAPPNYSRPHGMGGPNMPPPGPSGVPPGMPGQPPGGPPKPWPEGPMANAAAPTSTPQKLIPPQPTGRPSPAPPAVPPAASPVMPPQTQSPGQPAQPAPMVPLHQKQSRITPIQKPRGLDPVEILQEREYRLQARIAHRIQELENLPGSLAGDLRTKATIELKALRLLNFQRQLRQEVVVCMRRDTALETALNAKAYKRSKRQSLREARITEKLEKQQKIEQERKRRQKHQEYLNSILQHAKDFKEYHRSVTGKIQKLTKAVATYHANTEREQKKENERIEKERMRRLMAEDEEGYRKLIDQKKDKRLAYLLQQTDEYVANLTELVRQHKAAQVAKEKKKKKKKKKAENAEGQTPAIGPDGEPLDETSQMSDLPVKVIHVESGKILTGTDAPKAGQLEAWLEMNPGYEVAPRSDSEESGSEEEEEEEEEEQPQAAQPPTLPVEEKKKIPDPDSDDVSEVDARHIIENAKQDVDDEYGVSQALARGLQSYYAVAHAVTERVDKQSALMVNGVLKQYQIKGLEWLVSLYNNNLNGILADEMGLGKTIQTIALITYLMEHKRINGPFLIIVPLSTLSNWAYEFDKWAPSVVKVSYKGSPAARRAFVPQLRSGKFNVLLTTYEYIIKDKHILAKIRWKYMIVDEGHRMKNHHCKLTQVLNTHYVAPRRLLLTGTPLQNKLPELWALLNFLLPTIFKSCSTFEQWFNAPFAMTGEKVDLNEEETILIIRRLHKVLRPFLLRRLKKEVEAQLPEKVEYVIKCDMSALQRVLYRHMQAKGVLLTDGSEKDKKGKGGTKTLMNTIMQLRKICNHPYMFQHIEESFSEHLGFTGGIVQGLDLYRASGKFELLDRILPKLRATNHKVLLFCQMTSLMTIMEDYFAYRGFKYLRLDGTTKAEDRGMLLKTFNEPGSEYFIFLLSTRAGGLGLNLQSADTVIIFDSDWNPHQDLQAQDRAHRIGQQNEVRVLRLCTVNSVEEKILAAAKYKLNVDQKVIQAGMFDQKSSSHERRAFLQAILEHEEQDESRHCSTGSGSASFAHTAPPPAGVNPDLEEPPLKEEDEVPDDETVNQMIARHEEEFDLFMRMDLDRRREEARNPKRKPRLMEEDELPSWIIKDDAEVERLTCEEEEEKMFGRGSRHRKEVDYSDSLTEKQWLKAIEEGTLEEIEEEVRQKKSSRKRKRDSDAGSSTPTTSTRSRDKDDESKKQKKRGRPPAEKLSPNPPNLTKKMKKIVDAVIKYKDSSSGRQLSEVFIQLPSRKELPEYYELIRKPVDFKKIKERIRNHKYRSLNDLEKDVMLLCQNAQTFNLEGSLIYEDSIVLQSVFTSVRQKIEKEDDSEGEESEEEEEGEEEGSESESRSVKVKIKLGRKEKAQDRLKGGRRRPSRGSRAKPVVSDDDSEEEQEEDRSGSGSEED
# assay overview: ATPase catalytic activity of BRG-1, ADP-Glo in vitro biochemical assay
# test context: ADP-Glo ATPase assay, 30 nM BRG-1, 400 μM ATP; read-out: BRG1 IC50
# Experimental: The ATPase catalytic activity of BRM or BRG-1 was measured by an in vitro biochemical assay using ADP-Glo™ (Promega, V9102). The ADP-Glo™ kinase assay is performed in two steps once the reaction is complete. The first step is to deplete any unconsumed ATP in the reaction. The second step is to convert the reaction product ADP to ATP, which will be utilized by the luciferase to generate luminesce and be detected by a luminescence reader, such as Envision. […]
pIC50: −log10 of the molar value.
measurement kind: pIC50

molecule: O=C(NCc1cc2nc(N3CCc4cc(C(F)F)cnc43)ccc2cn1)c1ccc2c(c1)S(=O)(=O)CCOC2 [Compound 720]
test result: 6.64
--
molecule: Cc1ccc(-c2ccc3cnc(CNC(=O)c4ccc5c(c4)S(=O)(=O)CCOC5)cc3n2)c(=O)n1C [Compound 824]
test result: 5.32
--
molecule: O=C(NCc1cc2cc(-c3cccc(N4CCC4)n3)ccc2cn1)c1ccc2c(c1)S(=O)(=O)CCOC2 [Compound 271]
test result: 6.69
--
molecule: O=C(NCc1cc2nc(N3CCCc4cc(F)c(OCC5COC5)cc43)ccc2cn1)c1ccc2c(c1)S(=O)(=O)CCOC2 [Compound 726]
test result: 6.53
--
molecule: CN1CCCc2ccc(C(=O)NCc3cc4nc(-c5cncc(C6CC6)n5)ccc4cn3)cc2S1(=O)=O [Compound 297]
test result: 5.69
--
molecule: CO[C@H]1C[C@H](N(C)c2cccc(-c3ccc4cnc(CNC(=O)c5ccc6c(c5)S(=O)(=O)CCOC6)cc4n3)n2)C1 [Compound 42]
test result: 6.90
--
molecule: Cc1cc(-c2ccc3cnc(CNC(=O)c4ccc5c(c4)S(=O)(=O)CCOC5)cc3n2)nc(N2C[C@@H](C)O[C@@H](C)C2)c1 [Compound 212]
test result: 6.91
--
molecule: Cc1c(C2CC2)cnc2c1OCCN2c1ccc2cnc(CNC(=O)c3ccc4c(c3)S(=O)(=O)CCOC4)cc2n1 [Compound 784]
test result: 6.67
--
molecule: Cc1ncc(C(=O)NCc2cc3nc(-c4cccc(N5C[C@@H](C)O[C@@H](C)C5)n4)ccc3cn2)cc1S(C)(=O)=O [Compound 107]
test result: 7.25
--
molecule: CC1(C)CCN(c2ccc3cnc(CNC(=O)c4ccc5c(c4)S(=O)(=O)CCOC5)cc3n2)c2ncccc21 [Compound 752]
test result: 5.42
--
molecule: Cc1cnc2c(c1)C1(CCN2c2ccc3cnc(CNC(=O)c4ccc5c(c4)S(=O)(=O)CCOC5)cc3n2)CC1 [Compound 734]
test result: 7.06
--
molecule: CC1(c2ccc3c(n2)N(c2ccc4cnc(CNC(=O)c5ccc6c(c5)S(=O)(=O)CCOC6)cc4n2)CCO3)CC1 [Compound 713]
test result: 6.01
--
molecule: C[C@H]1CN(c2cccc(-c3ccc4cnc(CNC(=O)c5ccc6c(c5)S(=O)(=O)CCOC6)cc4n3)n2)CCO1 [Compound 223]
test result: 7.30
--
molecule: C[C@@H]1CN(c2cccc(-c3ccc4cnc(CNC(=O)c5cc(F)c6c(c5)S(=O)(=O)CCCO6)cc4n3)n2)C[C@H](C)O1 [Compound 37]
test result: 7.07
--
molecule: CN[C@H]1CCN(c2cccc(-c3ccc4cnc(CNC(=O)c5ccc6c(c5)S(=O)(=O)CCOC6)cc4n3)n2)CC1(F)F [Compound 67]
test result: 6.23
--
molecule: Cn1ccc2ccc(-c3ccc4cnc(CNC(=O)c5ccc6c(c5)S(=O)(=O)CCOC6)cc4n3)nc21 [Compound 136]
test result: 6.62
--
molecule: COc1nn([C@H]2C[C@H](F)C2)cc1-c1ccc2cnc(CNC(=O)c3ccc4c(c3)S(=O)(=O)CCOC4)cc2n1 [Compound 152]
test result: 5.67
--
molecule: O=C(NCc1cc2nc(N3CCOc4cc(N5CCC5)ncc43)ccc2cn1)c1ccc2c(c1)S(=O)(=O)CCOC2 [Compound 834]
test result: 6.54

###

Reported pIC50 is given for each of the following compounds.
# tested system: BRM (Homo sapiens, UniProt P51531)
# Construct: made in house; host or cells: High Five insect cells
# Sequence (P51531 whole entry): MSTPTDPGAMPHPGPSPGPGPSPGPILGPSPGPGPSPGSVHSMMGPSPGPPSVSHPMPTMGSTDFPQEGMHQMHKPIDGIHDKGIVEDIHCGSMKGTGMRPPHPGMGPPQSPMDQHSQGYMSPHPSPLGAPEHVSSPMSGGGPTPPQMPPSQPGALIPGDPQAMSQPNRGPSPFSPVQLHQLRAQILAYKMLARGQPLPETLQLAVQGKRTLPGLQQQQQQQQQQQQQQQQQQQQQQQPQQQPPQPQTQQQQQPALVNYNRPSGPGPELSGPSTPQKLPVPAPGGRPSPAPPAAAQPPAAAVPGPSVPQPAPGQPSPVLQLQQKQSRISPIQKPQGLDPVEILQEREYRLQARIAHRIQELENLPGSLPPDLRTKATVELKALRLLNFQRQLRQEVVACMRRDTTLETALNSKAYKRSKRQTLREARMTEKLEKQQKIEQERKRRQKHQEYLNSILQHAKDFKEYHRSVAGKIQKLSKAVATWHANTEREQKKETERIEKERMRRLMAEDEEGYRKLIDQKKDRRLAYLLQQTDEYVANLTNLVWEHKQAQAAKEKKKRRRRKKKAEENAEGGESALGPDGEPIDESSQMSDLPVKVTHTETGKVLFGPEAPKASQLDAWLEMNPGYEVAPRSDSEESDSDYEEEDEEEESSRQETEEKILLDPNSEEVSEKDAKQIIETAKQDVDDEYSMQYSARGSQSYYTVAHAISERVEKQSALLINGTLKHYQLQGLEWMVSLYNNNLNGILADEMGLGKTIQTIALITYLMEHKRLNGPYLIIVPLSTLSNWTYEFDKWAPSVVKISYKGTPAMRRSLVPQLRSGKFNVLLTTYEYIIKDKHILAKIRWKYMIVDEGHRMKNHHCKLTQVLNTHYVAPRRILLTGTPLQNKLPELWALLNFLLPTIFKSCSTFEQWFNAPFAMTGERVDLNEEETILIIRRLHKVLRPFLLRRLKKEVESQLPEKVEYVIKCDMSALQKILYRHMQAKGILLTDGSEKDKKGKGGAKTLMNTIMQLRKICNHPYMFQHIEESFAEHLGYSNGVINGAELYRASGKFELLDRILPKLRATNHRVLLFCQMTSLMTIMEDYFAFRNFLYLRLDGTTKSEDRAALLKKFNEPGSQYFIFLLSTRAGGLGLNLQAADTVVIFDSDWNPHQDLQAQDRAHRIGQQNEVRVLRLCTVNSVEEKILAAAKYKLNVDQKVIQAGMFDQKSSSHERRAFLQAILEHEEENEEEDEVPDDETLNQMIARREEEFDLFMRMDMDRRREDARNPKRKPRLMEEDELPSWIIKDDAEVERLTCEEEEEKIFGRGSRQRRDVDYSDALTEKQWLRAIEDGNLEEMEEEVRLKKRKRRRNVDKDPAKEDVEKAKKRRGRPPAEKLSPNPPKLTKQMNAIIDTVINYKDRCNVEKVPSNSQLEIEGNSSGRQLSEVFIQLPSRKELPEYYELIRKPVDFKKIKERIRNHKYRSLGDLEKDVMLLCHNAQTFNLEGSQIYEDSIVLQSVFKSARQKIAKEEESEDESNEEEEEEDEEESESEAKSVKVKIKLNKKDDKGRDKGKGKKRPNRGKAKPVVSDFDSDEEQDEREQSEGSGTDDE
# assay overview: ATPase catalytic activity of BRM, ADP-Glo in vitro biochemical assay
# test context: ATPase catalytic activity, ADP-Glo; 30 nM BRM, 400 μM ATP
pIC50: −log10 of the molar value.
measurement kind: pIC50

chemical string: C[C@@H]1CN(c2cccc(-c3ccc4cnc(CNC(=O)c5cc(F)c6c(c5)S(=O)(=O)CCO[C@@H]6C)cc4n3)n2)C[C@H](C)O1
tested system: BRM (Homo sapiens, UniProt P51531)
test result: 7.91

chemical string: O=C(NCc1cc2nc(N3CCOc4cc(C(F)F)cnc43)ccc2cn1)c1ccc2c(c1)S(=O)(=O)CCOC2
tested system: BRM (Homo sapiens, UniProt P51531)
test result: 7.88

chemical string: O=C(NCc1cc2nc(N3CCOc4ccc([C@H]5CC5(F)F)nc43)ccc2cn1)c1ccc2c(c1)S(=O)(=O)CCOC2
tested system: BRM (Homo sapiens, UniProt P51531)
test result: 7.84

###

Quick reference for Ratio* among some compounds
# tested system: BRM (Homo sapiens)
# Construct: made in house; host or cells: High Five insect cells
# assay overview: ATPase catalytic activity of BRM, ADP-Glo in vitro biochemical assay
# test context: ratio of BRG1 IC50 to BRM IC50

compound: C[C@H]1COCc2ccc(C(=O)NCc3cc4nc(-c5cccc(C6CC6)n5)ccc4nn3)cc2S1(=O)=O [Compound 423]
Ratio*: 32.23
//
compound: COCc1ccc2c(c1)N(c1ccc3cnc(CNC(=O)c4ccc5c(c4)S(=O)(=O)CCOC5)cc3n1)CCC2 [Compound 605]
Ratio*: 16.04
//
compound: C[C@@H]1CCS(=O)(=O)c2cc(C(=O)NCc3cc4nc(-c5cccc(N6C[C@@H](C)O[C@@H](C)C6)n5)ccc4cn3)cc(Cl)c2O1 [Compound 505]
Ratio*: 9.28
//
compound: COCCn1ccc2c(-c3ccc4cnc(CNC(=O)c5ccc6c(c5)S(=O)(=O)CCOC6)cc4n3)ccnc21 [Compound 336]
Ratio*: 16.08
//
compound: Cc1cnc2c(c1)OCCN2c1ccc2cnc(CNC(=O)c3cc(F)c4c(c3)S(=O)(=O)[C@@H](C)COC4)cc2n1 [Compound 554]
Ratio*: 9.64
//
compound: CC1CN(c2cccc(-c3ccc4cnc(CNC(=O)c5ccc6c(c5)S(=O)(=O)C(C)COC6C)cc4n3)n2)CC(C)O1 (centres unmarked) [Compound 535]
Ratio*: 7.84
//
compound: O=C(NCc1cc2nc(N3CCCc4c(F)ccnc43)ccc2cn1)c1ccc2c(c1)S(=O)(=O)CCOC2 [Compound 526]
Ratio*: 11.34
//
compound: Cc1cnc2c(c1)CCCN2c1ccc2cnc(CNC(=O)c3ccc4c(c3)S(=O)(=O)CCCO4)cc2n1 [Compound 514]
Ratio*: 7.89
//
compound: O=C(NCc1cc2nc(N3CCCc4ccc(COC5CC5)nc43)ccc2cn1)c1ccc2c(c1)S(=O)(=O)CCOC2 [Compound 598]
Ratio*: 33.79
//
compound: CO[C@@H]1CCN(c2cccc(-c3ccc4cnc(CNC(=O)c5ccc6c(c5)S(=O)(=O)CCOC6)cc4n3)n2)C[C@H]1C [Compound 353]
Ratio*: 13.13
//
compound: O=C(NCc1cc2nc(-c3cccc(OCC4CC4(F)F)n3)ccc2cn1)c1ccc2c(c1)S(=O)(=O)CCOC2 (centres unmarked) [Compound 391]
Ratio*: 15.87
//
compound: CCOc1nc(-c2ccc3cnc(CNC(=O)c4ccc5c(c4)S(=O)(=O)CCOC5)cc3n2)ccc1Cl [Compound 493]
Ratio*: 5.15
//
compound: C[C@@H]1CN(c2cccc(-c3ccc4cnc([C@H](C)NC(=O)c5ccc6c(c5)S(=O)(=O)[C@@H](C)COC6)cc4n3)n2)C[C@H](C)O1 [Compound 325]
Ratio*: 16.33
//
compound: Cc1cc(C(=O)NCc2cc3nc(-c4cccc(N5C[C@@H](C)O[C@@H](C)C5)n4)ccc3cn2)cc2c1O[C@H](C)CCS2(=O)=O [Compound 541]
Ratio*: 38.11

###

# key: entry, value: Ratio*
# tested system: BRM (Homo sapiens)
# Construct: made in house; host or cells: High Five insect cells
# assay overview: ATPase catalytic activity of BRM, ADP-Glo in vitro biochemical assay
# test context: ratio of BRG1 IC50 to BRM IC50

compound: O=C(NCc1cc2nc(-c3cccc(C4CC4)n3)ccc2nn1)c1cc(F)c2c(c1)S(=O)(=O)CCOC2
Ratio*: 28.45
//
compound: CC(F)(F)c1ccc2c(c1)N(c1ccc3cnc(CNC(=O)c4ccc5c(c4)S(=O)(=O)CCOC5)cc3n1)CCO2
Ratio*: 15.88
//
compound: COc1c(-c2ccc3cnc(CNC(=O)c4ccc5c(c4)S(=O)(=O)CCOC5)cc3n2)cccc1C1CC1
Ratio*: 5.06
//
compound: O=C(NCc1cc2nc(N3CCCc4c(C(F)F)ccnc43)ccc2cn1)c1ccc2c(c1)S(=O)(=O)CCOC2
Ratio*: 7.10
//
compound: COCCN1CCCOc2c(-c3ccc4cnc(CNC(=O)c5ccc6c(c5)S(=O)(=O)CCOC6)cc4n3)cccc21
Ratio*: 3.69
//
compound: C[C@@H]1C[C@@H](N(C)c2cccc(-c3ccc4cnc(CNC(=O)c5ccc6c(c5)S(=O)(=O)CCOC6)cc4n3)n2)C[C@H](C)O1
Ratio*: 17.82
//
compound: COCCN(CC(C)(F)F)c1cccc(-c2ccc3cnc(CNC(=O)c4ccc5c(c4)S(=O)(=O)CCOC5)cc3n2)n1
Ratio*: 10.75
//
compound: CC1CN(c2cccc(-c3ccc4cnc(CNC(=O)c5cnc6c(c5)S(=O)(=O)CCC5CC65)cc4n3)n2)CC(C)O1 (centres unmarked) [Compound 579]
Ratio*: 4.40
//
compound: C[C@@H]1CN(c2cccc(-c3ccc4cnc(CNC(=O)c5cnc6c(c5)S(=O)(=O)CCC5CC65)cc4n3)n2)C[C@H](C)O1 (mixture of isomers)
Ratio*: 4.24
//
compound: CO[C@H]1CN(c2cccc(-c3ccc4cnc(CNC(=O)c5ccc6c(c5)S(=O)(=O)CCOC6)cc4n3)n2)C[C@H]1F
Ratio*: 13.49
//
compound: O=C(NCc1cc2nc(-c3cccc([C@]45CCOCC4C5)n3)ccc2cn1)c1ccc2c(c1)S(=O)(=O)CCOC2 (some centres unmarked)
Ratio*: 12.27
//
compound: C[C@@H]1CN(c2cccc(-c3ccc4cnc(CNC(=O)c5cc(C6CCC6)c6c(c5)S(=O)(=O)CCOC6)cc4n3)n2)C[C@H](C)O1
Ratio*: 4.19
//
compound: O=C(NCc1cc2nc(N3CCCC4CCCC43)ccc2cn1)c1ccc2c(c1)S(=O)(=O)CCOC2 (centres unmarked)
Ratio*: 7.21
//
compound: C[C@H]1COCc2ccc(C(=O)NCc3cc4nc(-c5cccc(C6CC6)n5)cnc4cn3)cc2S1(=O)=O
Ratio*: 36.53
//
compound: COC[C@H]1C[C@@H](N(C)c2cccc(-c3ccc4cnc(CNC(=O)c5ccc6c(c5)S(=O)(=O)CCOC6)cc4n3)n2)C1
Ratio*: 15.10
//
compound: O=C(NCc1cc2nc(N3CCCc4ccc(OC5CC5)cc43)ccc2cn1)c1ccc2c(c1)S(=O)(=O)CCOC2
Ratio*: 26.34
//
compound: N#Cc1ccc2c(c1)N(c1ccc3cnc(CNC(=O)c4ccc5c(c4)S(=O)(=O)CCOC5)cc3n1)CCC2
Ratio*: 14.96
//
compound: CO[C@H]1CN(c2cccc(-c3ccc4cnc(CNC(=O)c5ccc6c(c5)S(=O)(=O)CCOC6)cc4n3)n2)C[C@@H]1F
Ratio*: 8.89
//
compound: C[C@@H]1CN(c2cccc(-c3ccc4cnc(CNC(=O)c5cnc6c(c5)S(=O)(=O)[C@H](C)CC6)cc4n3)n2)C[C@H](C)O1
Ratio*: 7.34
//
compound: C[C@@H]1CN(c2cccc(-c3ccc4cnc(CNC(=O)c5cnc6c(c5)S(=O)(=O)[C@@H](C)CCC6)cc4n3)n2)C[C@H](C)O1
Ratio*: 4.21
//
compound: Cc1ccc2c(n1)N(c1ccc3cnc(CNC(=O)c4ccc5c(c4)S(=O)(=O)CCOC5)cc3c1)CCO2
Ratio*: 22.41
//
compound: Cc1cnc2c(c1C)CCCN2c1ccc2cnc(CNC(=O)c3ccc4c(c3)S(=O)(=O)CCOC4)cc2n1
Ratio*: 10.32
//
compound: O=C(NCc1cc2nc(-c3cccc4c3CN(C3COC3)CC4)ccc2cn1)c1ccc2c(c1)S(=O)(=O)CCOC2
Ratio*: 1.25
